From: ChEMBL document CHEMBL4270515

- Test system: Ehrlich
- run.description: Antitumor activity against mouse EAC cells implanted in Swiss albino mouse assessed as increase in life span at 0.5 mg/mouse administered for 9 days relative to control
- Assay type: functional
Item-by-item account of ILS
Lab book: enter the figure in %, no units written.

> print(dat)
                                   compound  assay.endpoint  quantitative.readout
1  COc1cccc2c1C(=O)c1c(O)c3c(c(O)c1C2=O)C[C@@](O)(C(=O)CO)C[C@@H]3O[C@H]1C[C@H](N)[C@H](O)[C@H](C)O1             ILS                 244.4

Query: Indicate the recorded ILS value for this compound: Cc1n[nH]c2c1C(c1ccc(N(C)C)cc1)C(C(N)=O)=C(N)N2 (stereo not given)
Result: 238.9

Query: State its ILS: Cc1n[nH]c2c1C(c1ccc(N(C)C)cc1)C(C(=O)NNC(N)=S)=C(N)N2 (stereo not given)
Result: 155.5

Query: Identify ILS associated with the compound Cc1n[nH]c2c1C(c1ccc(N(C)C)cc1)C(C(=O)NNc1cc([N+](=O)[O-])ccc1[N+](=O)[O-])=C(N)N2 (stereo not given)
Result: 133.3

Query: Report measured ILS; entry is Cc1n[nH]c2c1C(c1ccc(N(C)C)cc1)C=C(N)N2 (stereo not given)
Result: 72.2

###

- System: Candida albicans
- run.description: Antimicrobial activity against Candida albicans after 48 hrs by two-fold serial dilution method
- Type: functional
assay.endpoint: MIC (µM)
I only need the number, in µM, no unit after it.

See these solved cases before continuing.
> print(dat)
                                   molecule  unit.descriptor  quantitative.readout
1  Cc1n[nH]c2c1C(c1ccc(N(C)C)cc1)C=C(N)N2 (stereo not given)               µM                  3710
2  Cc1n[nH]c2c1C(c1ccc(N(C)C)cc1)C(C(=O)NNC(N)=S)=C(N)N2 (stereo not given)               µM                  1290
3  Cc1n[nH]c2c1C(c1ccc(N(C)C)cc1)C(C(=O)NNc1cc([N+](=O)[O-])ccc1[N+](=O)[O-])=C(N)N2 (stereo not given)               µM                  1010
4  Cc1n[nH]c2c1C(c1ccc(N(C)C)cc1)C(C(=O)O)=C(N)N2 (stereo not given)               µM                   798

Moving on to the next molecule.
Query: Report MIC from Candida albicans testing of Cc1n[nH]c2c1C(c1ccc(N(C)C)cc1)C(C(=O)N/N=C1/C(=O)Nc3ccccc31)=C(N)N2 (stereo not given)
Result: 2190

###

- System: Candida albicans
- run.description: Antimicrobial activity against Candida albicans after 48 hrs by two-fold serial dilution method
- Type: functional
Label Criterion met when MIC is strictly below 5 mM; at or above that, label Criterion not met.

> print(dat)
                                   molecule  category.label
1  Cc1n[nH]c2c1C(c1ccc(N(C)C)cc1)C(C(=O)NN)=C(N)N2 (stereo not given)   Criterion met
2  Cc1n[nH]c2c1C(c1ccc(N(C)C)cc1)C(C(=O)N/N=C/c1ccc(Cl)cc1)=C(N)N2 (stereo not given)   Criterion met

Query: Report whether reported MIC is lower than 5 mM (strictly) for Cc1n[nH]c2c1C(c1ccc(N(C)C)cc1)C(C(N)=O)=C(N)N2 (stereo not given)
Result: Criterion not met

Query: Does this molecule meet the criterion MIC < 5 mM? OC(Cn1cncn1)(Cn1cncn1)c1ccc(F)cc1F
Result: Criterion not met
